- system: human ACC1 (Homo sapiens)
- experiment_summary: Human ACC1 enzyme assay (ADP-Glo)
- Assay type: biochemical
- details: individual measurement (measurement no./preparation no. in table); read-out: ACC 1 IC50
recorded_metric: pIC50
Please report pIC50 as the negative decimal logarithm of the molar concentration, giving only the number.

*Q* Output measured pIC50 for this item: COC[C@H]1CC[C@]2(CC1)NC(=O)C(c1cc(-c3ccc(Cl)c(F)c3)ccc1C)=C2O
*A* 7.14

====

- experiment_summary: Plasma protein binding by equilibrium dialysis
- Assay type: in vitro ADME
- details: mouse and human, plasma; Table 5
recorded_metric: fu ratio mouse/human
Reply: number alone, nothing else.

*Q* Please supply the value of reported fu ratio mouse/human for the item COC[C@H]1CC[C@]2(CC1)NC(=O)C(c1cc(-c3ccc(Cl)c(F)c3)ccc1C)=C2O [V.4-b]
*A* 1

Sourced from patent US9278925B2
